Quick note: these are IC50 numbers for system: CSNK1D (Homo sapiens (Human))
Sequence (P48730 whole entry): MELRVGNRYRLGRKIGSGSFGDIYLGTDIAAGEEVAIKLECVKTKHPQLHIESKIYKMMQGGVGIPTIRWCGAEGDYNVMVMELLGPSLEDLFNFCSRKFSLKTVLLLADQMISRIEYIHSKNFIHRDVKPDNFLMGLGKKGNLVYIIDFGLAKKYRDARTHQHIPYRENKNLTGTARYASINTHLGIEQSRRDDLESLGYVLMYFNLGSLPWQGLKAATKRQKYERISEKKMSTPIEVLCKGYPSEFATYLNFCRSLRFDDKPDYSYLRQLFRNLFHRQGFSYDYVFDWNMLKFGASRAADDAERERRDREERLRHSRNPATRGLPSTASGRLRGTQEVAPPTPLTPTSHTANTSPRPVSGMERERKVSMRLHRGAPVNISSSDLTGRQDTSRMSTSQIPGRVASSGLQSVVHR

- compound: "CC(C(=O)Nc1cc(-c2[nH]c3ccn(C)c(=O)c3c2-c2ccoc2)ccn1)c1ccc(F)cc1 (racemic) [Example 115]"
  IC50: "5.6 nM"
- compound: "CN1CC(C)(C)c2[nH]c(-c3ccnc(NC(=O)C(CC(F)F)c4ccc(F)cc4)c3)c(-c3ccccc3)c2C1=O (single isomer, unassigned; (+)) [Example 152]"
  IC50: "4.5 nM"

Readout IC50 for CC(C(=O)Nc1cc(-c2[nH]c3c(CC4CC4)cn(C)c(=O)c3c2-c2ccccc2)ccn1)c1ccc(F)cc1 (racemic) [Example 58] , test system CSNK1D (Homo sapiens (Human)), was 4 nM

Record O=C(Cc1ccc(F)cc1)Nc1cc(-c2[nH]c3c(c2-c2ccccc2)C(=O)NCC3)ccn1 [Example 72] has CSNK1D (Homo sapiens (Human)) IC50 equal to 1.3 nM

Field IC50 (system: CSNK1D (Homo sapiens (Human))) for entry CN1C(=O)c2c([nH]c(-c3ccnc(NC(=O)C(CC(F)F)c4ccc(F)cc4)c3)c2-c2ccccc2)CC12CCC2 (single isomer, unassigned; (-)) [Example 50] = 9.8 nM

Measured IC50 for this entry O=C(Nc1cc(-c2[nH]c3ccn(C4CC4)c(=O)c3c2-c2ccccc2)ccn1)C(CC(F)F)c1ccc(F)cc1 (racemic) [Example 137] on CSNK1D (Homo sapiens (Human)): 3 nM

Origin of the recorded values: patent US20230322767A1
